tested-target: PRKCZ (human) (UniProt Q05513)
Sequence (Q05513 whole entry, looked up): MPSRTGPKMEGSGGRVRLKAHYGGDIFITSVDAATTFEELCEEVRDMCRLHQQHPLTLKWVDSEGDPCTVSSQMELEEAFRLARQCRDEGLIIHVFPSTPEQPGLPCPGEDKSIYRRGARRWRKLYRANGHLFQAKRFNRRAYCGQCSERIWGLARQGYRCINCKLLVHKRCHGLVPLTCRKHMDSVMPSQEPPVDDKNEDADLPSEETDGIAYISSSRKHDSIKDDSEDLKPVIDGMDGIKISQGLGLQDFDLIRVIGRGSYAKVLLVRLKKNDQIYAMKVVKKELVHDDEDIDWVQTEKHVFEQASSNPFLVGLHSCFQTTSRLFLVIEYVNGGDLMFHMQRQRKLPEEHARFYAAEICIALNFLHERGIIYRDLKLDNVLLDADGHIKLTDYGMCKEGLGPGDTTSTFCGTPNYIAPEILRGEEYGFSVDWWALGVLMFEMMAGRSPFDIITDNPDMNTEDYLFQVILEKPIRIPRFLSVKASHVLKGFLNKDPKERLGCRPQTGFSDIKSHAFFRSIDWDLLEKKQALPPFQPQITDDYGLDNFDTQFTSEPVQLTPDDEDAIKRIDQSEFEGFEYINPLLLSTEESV
protocol-notes: radiometric filter-binding kinase assay, Kinase HotSpot
conditions-used: compound 0.5 µM; ATP 10 µM
Below, each of the compounds is paired with its reported residual activity value.
Answer in %, number only, no unit symbol.

Here's what some known entries look like.
smiles-code | tested-target | readout-type | output-unit | reported-measurement
Oc1cccc(-c2nc(N3CCOCC3)c3oc4ncccc4c3n2)c1 | PRKCZ (human) (UniProt Q05513) | residual activity | % | 99.1
O=C1NC(=O)c2c1c1c3ccccc3n3c1c1c2c2ccccc2n1C1CCC3O1 | PRKCZ (human) (UniProt Q05513) | residual activity | % | 87.4
CNC(=O)c1cc(Oc2ccc(NC(=O)Nc3ccc(Cl)c(C(F)(F)F)c3)cc2)ccn1 | PRKCZ (human) (UniProt Q05513) | residual activity | % | 94.5
O=C1Nc2ccc(Cl)cc2/C1=C/c1cc(Cl)c(O)c(Cl)c1 | PRKCZ (human) (UniProt Q05513) | residual activity | % | 95.3

Recorded result, Nc1ccc2ncnc(NCCc3ccc(Oc4ccccc4)cc3)c2c1 , residual activity: 96

Recorded result, O=C(Nc1cccc(Nc2nccc(Nc3cccc(C(F)(F)F)c3)n2)c1)C1CC1 , residual activity: 98.8

Recorded result, CC#CC(=O)Nc1cc2c(Nc3ccc(F)c(Cl)c3)ncnc2cn1 , residual activity: 114

Recorded result, Cc1ccc(NC2=CC(=O)c3sc(C)nc3C2=O)cc1 , residual activity: 98.2

Recorded result, CCN(CC)CCNC(=O)c1c(C)[nH]c(/C=C2\C(=O)Nc3ccc(Cl)cc32)c1C , residual activity: 104

Recorded result, Cc1ccc(Nc2nccc(N(C)c3ccc4c(C)n(C)nc4c3)n2)cc1S(N)(=O)=O , residual activity: 97.7

Recorded result, CCCC(=O)Oc1ccc2[nH]c(C(=O)c3cc4ccccc4[nH]3)cc2c1 , residual activity: 98.3

Recorded result, CC(C)N(CCC(=O)c1ccc2ccccc2c1)Cc1ccccc1 , residual activity: 100

Recorded result, CCOC(=O)c1c(C)[nH]c(/C=C2\C(=O)Nc3ccccc32)c1C , residual activity: 97

Recorded result, CNc1cc2c(Nc3cccc(Br)c3)ncnc2cn1 , residual activity: 98.6

Recorded result, CCC(=O)Nc1ccc2ncnc(Nc3cccc(Br)c3)c2c1 , residual activity: 95.7

Recorded result, O=S(=O)(c1cccc2cnccc12)N1CCCNCC1 , residual activity: 94.7

Recorded result, c1ccc(-c2n[nH]c3c2oc2ccccc23)cc1 , residual activity: 87.1

----------
Below, each of the compounds is paired with its reported residual activity value.
tested-target: EPHB2 (human)
protocol-notes: radiometric filter-binding kinase assay, Kinase HotSpot
conditions-used: compound 0.5 µM; ATP 10 µM
Answer in %, number only, no unit symbol.

Recorded result, Cc1[nH]c(/C=C2\C(=O)Nc3ccc(S(=O)(=O)N(C)c4cccc(Cl)c4)cc32)c(C)c1C(=O)N1CCN(C)CC1 , residual activity: 91.8

Recorded result, CCN(CC)CCNC(=O)c1c(C)[nH]c(/C=C2\C(=O)Nc3ccc(Cl)cc32)c1C , residual activity: 87.5

----------
Below, each of the molecules is paired with its reported residual activity value.
tested-target: STK24 (human)
protocol-notes: radiometric filter-binding kinase assay, Kinase HotSpot
conditions-used: compound 0.5 µM; ATP 10 µM
Answer in %, number only, no unit symbol.

Here's what some known entries look like.
molecule | tested-target | output-unit | reported-measurement
O=C1NC(=O)C(c2cn(CCCn3ccnc3)c3ccccc23)=C1Nc1ccccc1 | STK24 (human) | % | 51.7
Nc1ncnc2[nH]nc(Nc3ccc(F)cc3)c12 | STK24 (human) | % | 81.6
COc1cc2ncnc(Nc3cccc(Cl)c3)c2cc1OC | STK24 (human) | % | 96.8

GET /values?item= O=C(Nc1cccc(Nc2nccc(Nc3cccc(C(F)(F)F)c3)n2)c1)C1CC1 &system= STK24 (human) returns residual activity: 98.3

GET /values?item= c1ccc(-c2n[nH]cc2-c2ccnc3ccccc23)nc1 &system= STK24 (human) returns residual activity: 96.8

GET /values?item= c1ccc(-c2n[nH]c3c2oc2ccccc23)cc1 &system= STK24 (human) returns residual activity: 75.3

GET /values?item= CO[C@H]1CC2CC[C@@H](C)[C@@](O)(O2)C(=O)C(=O)N2CCCC[C@H]2C(=O)OC([C@H](C)C[C@@H]2CC[C@@H](O)[C@H](OC)C2)CC(=O)[C@H](C)/C=C(\C)[C@@H](O)[C@@H](OC)C(=O)[C@H](C)C[C@H](C)/C=C/C=C/C=C/1C (some centres not stated) &system= STK24 (human) returns residual activity: 93.5

GET /values?item= Cc1[nH]c(/C=C2\C(=O)Nc3ccc(S(=O)(=O)N(C)c4cccc(Cl)c4)cc32)c(C)c1C(=O)N1CCN(C)CC1 &system= STK24 (human) returns residual activity: 49.6

GET /values?item= Oc1cccc(-c2nc(N3CCOCC3)c3oc4ncccc4c3n2)c1 &system= STK24 (human) returns residual activity: 100

GET /values?item= COc1ccc2c(c[n+](C)c3c4cc5c(cc4ccc23)OCO5)c1OC &system= STK24 (human) returns residual activity: 84.2

GET /values?item= CC(C)N(CCC(=O)c1ccc2ccccc2c1)Cc1ccccc1 &system= STK24 (human) returns residual activity: 96.6

GET /values?item= CC[n+]1c(/C=C/N(C)c2ccccc2)n(-c2ccccc2)c2ccc(-c3nc4ccccc4s3)cc21 &system= STK24 (human) returns residual activity: 99.2
